test: Solubility in DPBS (A280 of supernatant); type: physicochemical; settings: DPBS, Table 3 Part A; read-out: Solubility in DPBS
Numbered stars: 1 amine (or outer) side, 2 acyl side, 3 side chain; on linkers, the order of the positions; unused ones are H or OH. Bridge positions count the residues as written; N and C are the ends. Square brackets hold non-standard residues; d marks the D form. Peptide text beside a SMILES is read from it. 3Aminoazetidine3carboxyl = O=C(C1(N[*:1])CN([*:3])C1)[*:2]; dαMeOrn(Me) = CN(CCC[C@@](C)(N[*:1])C(=O)[*:2])[*:3]; dαMeDab(Me) = CN(CC[C@@](C)(N[*:1])C(=O)[*:2])[*:3]; αMeDab(Me) = CN(CC[C@](C)(N[*:1])C(=O)[*:2])[*:3]; X3 = O=C([C@@]1(N[*:1])CCN([*:3])C1)[*:2]; X1 = O=C([C@]1(N[*:1])CCN([*:3])C1)[*:2]; X2 = O=C(OCC=CCOC(=O)[*:2])[*:1]
Readout Type: solubility (µM)
// note: answer is a bare numeric in µM

CC[C@H](C)[C@@H]1NC(=O)[C@H](Cc2c[nH]cn2)NC(=O)[C@H](C)NC(=O)[C@H](CC(=O)O)NC(=O)[C@H](CC(C)C)NC(=O)[C@H]([C@@H](C)CC)NC(=O)[C@](C)(NC(=O)[C@H](C)NC(C)=O)CCC=CCOC(=O)N(C)CCC[C@@](C)(C(=O)N[C@@H](CCCNC(=N)N)C(=O)N[C@H](C(=O)N[C@@H](Cc2c[nH]c3ccccc23)C(N)=O)C(C)C)NC1=O [FP0509c, Ac-A-R4-I-L-D-A-H-I-MH-R-V-W-NH2] :: 42

IN: Query (compound): CC[C@H](C)[C@@H]1NC(=O)[C@H](Cc2c[nH]cn2)NC(=O)[C@H](C)NC(=O)[C@H](CC(=O)O)NC(=O)[C@H](CC(C)C)NC(=O)[C@H]([C@@H](C)CC)NC(=O)[C@](C)(NC(=O)[C@H](C)NC(C)=O)CCCCCCC=CCOC(=O)N2CC[C@@](C(=O)N[C@@H](CCCNC(=N)N)C(=O)N[C@H](C(=O)N[C@@H](Cc3c[nH]c4ccccc34)C(N)=O)C(C)C)(C2)NC1=O (single isomer, unassigned) [FPO217c Isomer 2, Ac-AR8ILDAHIMBRVW (SEQ ID NO: 280)] ; field requested: solubility
OUT: 12

IN: Query (compound): CC[C@H](C)[C@@H]1NC(=O)[C@H](Cc2c[nH]cn2)NC(=O)[C@H](C)NC(=O)[C@H](CC(=O)O)NC(=O)[C@H](CC(C)C)NC(=O)[C@H]([C@@H](C)CC)NC(=O)[C@](C)(NC(=O)[C@H](C)NC(C)=O)CCN(C)C(=O)OCC=CCOC(=O)N(C)CC[C@@](C)(C(=O)N[C@@H](CCCNC(=N)N)C(=O)N[C@H](C(=O)N[C@@H](Cc2c[nH]c3ccccc23)C(N)=O)C(C)C)NC1=O [FP0594c, Ac-A-MG-I-L-D-A-H-I-MF-R-V-W-NH2] (Ac-A[dαMeDab(Me)]ILDAHI[αMeDab(Me)]RVW-NH2; linker 2-9 via X2) ; field requested: solubility
OUT: 166

IN: Query (compound): CC[C@H](C)[C@@H]1NC(=O)[C@H](Cc2c[nH]cn2)NC(=O)[C@H](C)NC(=O)[C@H](CC(=O)O)NC(=O)[C@H](CC(C)C)NC(=O)[C@H]([C@@H](C)CC)NC(=O)C2(NC(=O)[C@H](C)NC(C)=O)CN(C2)C(=O)OCC=CCOC(=O)N2CC[C@@](C(=O)N[C@@H](CCCNC(=N)N)C(=O)N[C@H](C(=O)N[C@@H](Cc3c[nH]c4ccccc34)C(N)=O)C(C)C)(C2)NC1=O [FP0617c, Ac-A-MA-I-L-D-A-H-I-MB-R-V-W-NH2] (Ac-A[3Aminoazetidine3carboxyl]ILDAHI[X1]RVW-NH2; linker 2-9 via X2) ; field requested: solubility
OUT: 63

IN: Query (compound): CC[C@H](C)[C@@H]1NC(=O)[C@H](Cc2c[nH]cn2)NC(=O)[C@H](C)NC(=O)[C@H](CC(=O)O)NC(=O)[C@H](CC(C)C)NC(=O)[C@H]([C@@H](C)CC)NC(=O)[C@](C)(NC(=O)[C@H](C)NC(C)=O)CCCN(C)C(=O)OCC=CCOC(=O)N(C)CC[C@](C)(C(=O)N[C@@H](CCCNC(=N)N)C(=O)N[C@H](C(=O)N[C@@H](Cc2c[nH]c3ccccc23)C(N)=O)C(C)C)NC1=O [FP0588c, Ac-A-MI-I-L-D-A-H-I-MG-R-V-W-NH2] (Ac-A[dαMeOrn(Me)]ILDAHI[dαMeDab(Me)]RVW-NH2; linker 2-9 via X2) ; field requested: solubility
OUT: 133

IN: Query (compound): CC[C@H](C)[C@@H]1NC(=O)[C@H](Cc2c[nH]cn2)NC(=O)[C@H](C)NC(=O)[C@H](CC(=O)O)NC(=O)[C@H](CC(C)C)NC(=O)[C@H]([C@@H](C)CC)NC(=O)C2(NC(=O)[C@H](C)NC(C)=O)CN(C2)C(=O)OCC=CCOC(=O)N2CC[C@](C(=O)N[C@@H](CCCNC(=N)N)C(=O)N[C@H](C(=O)N[C@@H](Cc3c[nH]c4ccccc34)C(N)=O)C(C)C)(C2)NC1=O [FP0616c, Ac-A-MA-I-L-D-A-H-I-MC-R-V-W-NH2] (Ac-A[3Aminoazetidine3carboxyl]ILDAHI[X3]RVW-NH2; linker 2-9 via X2) ; field requested: solubility
OUT: 56

IN: Query (compound): CC[C@H](C)[C@@H]1NC(=O)[C@H](Cc2c[nH]cn2)NC(=O)[C@H](C)NC(=O)[C@H](CC(=O)O)NC(=O)[C@H](CC(C)C)NC(=O)[C@H]([C@@H](C)CC)NC(=O)[C@](C)(NC(=O)[C@H](C)NC(C)=O)CCCCCC=CCOC(=O)N(C)CC[C@@](C)(C(=O)N[C@@H](CCCNC(=N)N)C(=O)N[C@H](C(=O)N[C@@H](Cc2c[nH]c3ccccc23)C(N)=O)C(C)C)NC1=O [FP0503c, Ac-A-R7-I-L-D-A-H-I-MF-R-V-W-NH2] ; field requested: solubility
OUT: 35

IN: Query (compound): CC[C@H](C)[C@@H]1NC(=O)[C@H](Cc2c[nH]cn2)NC(=O)[C@H](C)NC(=O)[C@H](CC(=O)O)NC(=O)[C@H](CC(C)C)NC(=O)[C@H]([C@@H](C)CC)NC(=O)[C@@](C)(NC(=O)[C@H](C)NC(C)=O)CCN(C)C(=O)OCC=CCOC(=O)N2CC[C@@](C(=O)N[C@@H](CCCNC(=N)N)C(=O)N[C@H](C(=O)N[C@@H](Cc3c[nH]c4ccccc34)C(N)=O)C(C)C)(C2)NC1=O [FP0626c, Ac-A-MF-I-L-D-A-H-I-MB-R-V-W-NH2] (Ac-A[αMeDab(Me)]ILDAHI[X1]RVW-NH2; linker 2-9 via X2) ; field requested: solubility
OUT: 40
